From: patent US20260217748A1

# measured_target: hERG (Homo sapiens)
# Sequence (Q12809 whole entry): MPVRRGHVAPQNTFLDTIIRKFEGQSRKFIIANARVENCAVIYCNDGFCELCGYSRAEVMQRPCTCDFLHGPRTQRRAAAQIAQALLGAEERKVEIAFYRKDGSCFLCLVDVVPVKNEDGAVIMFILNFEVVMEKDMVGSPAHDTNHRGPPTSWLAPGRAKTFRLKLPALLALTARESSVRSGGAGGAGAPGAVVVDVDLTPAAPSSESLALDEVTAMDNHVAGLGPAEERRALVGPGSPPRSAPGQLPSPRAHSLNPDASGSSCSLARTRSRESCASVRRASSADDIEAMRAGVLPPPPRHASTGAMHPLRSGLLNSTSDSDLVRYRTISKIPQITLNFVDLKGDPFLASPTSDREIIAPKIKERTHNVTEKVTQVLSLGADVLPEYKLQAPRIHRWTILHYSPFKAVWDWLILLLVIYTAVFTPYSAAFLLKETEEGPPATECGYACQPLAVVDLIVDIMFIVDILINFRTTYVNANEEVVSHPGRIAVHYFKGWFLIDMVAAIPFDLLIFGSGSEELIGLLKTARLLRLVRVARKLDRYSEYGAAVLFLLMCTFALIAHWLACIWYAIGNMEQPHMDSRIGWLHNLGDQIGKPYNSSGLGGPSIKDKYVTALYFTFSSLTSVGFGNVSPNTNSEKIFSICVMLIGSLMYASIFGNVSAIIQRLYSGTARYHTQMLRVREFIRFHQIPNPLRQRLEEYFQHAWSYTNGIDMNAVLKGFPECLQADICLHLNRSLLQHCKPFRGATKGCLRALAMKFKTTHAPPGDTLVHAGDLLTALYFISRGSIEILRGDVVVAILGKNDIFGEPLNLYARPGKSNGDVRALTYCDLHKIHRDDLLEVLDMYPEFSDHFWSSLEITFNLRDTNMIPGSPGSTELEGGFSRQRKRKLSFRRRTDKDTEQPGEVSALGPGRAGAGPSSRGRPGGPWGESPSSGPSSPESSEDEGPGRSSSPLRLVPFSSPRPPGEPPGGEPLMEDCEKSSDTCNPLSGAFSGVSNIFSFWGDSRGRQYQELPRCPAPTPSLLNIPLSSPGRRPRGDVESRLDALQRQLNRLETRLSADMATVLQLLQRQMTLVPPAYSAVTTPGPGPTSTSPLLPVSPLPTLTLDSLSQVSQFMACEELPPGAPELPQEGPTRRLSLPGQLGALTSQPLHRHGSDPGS
pIC50: −log10 of the molar value.
measured_metric: pIC50

[Q] // Input: CC[C@H]1CC2C[C@H]3c4[nH]c5ccc(OC(C)OC)cc5c4CC[N@@](C2)C13 (stereo partly shown) [Compound 3] . Output its pIC50 only.
[A] < 5.00

----------
# experiment_description: PBS solubility
# Format: physicochemical
# reported_conditions: aqueous buffer
measured_metric: solubility (µM)
Answers are plain numbers, in µM.

[Q] Determine from records and report solubility for CC[C@H]1CC2C[C@H]3c4[nH]c5ccc(OC(C)OC)cc5c4CC[N@@](C2)C13 (stereo partly shown)
[A] 245

----------
# experiment_description: Chrom logD
# Format: physicochemical
measured_metric: chromatographic logD
Answers are plain numbers.

[Q] Tell me chromatographic logD reported for CC[C@H]1CC2C[C@H]3c4[nH]c5ccc(OC(C)OC)cc5c4CC[N@@](C2)C13 (stereo partly shown) [Compound 3]
[A] 4.9
